Attribute: pIC50
biological target: IDH1 R132H (Homo sapiens (Human), UniProt O75874, R132H); assay: Effect on the enzyme activity of IDH1 at the molecular level (NADPH consumption, diaphorase/resazurin); conditions: α-KG 1 mM, NADPH 4 μM, 60 min room temperature
Sequence (O75874 whole entry R132H): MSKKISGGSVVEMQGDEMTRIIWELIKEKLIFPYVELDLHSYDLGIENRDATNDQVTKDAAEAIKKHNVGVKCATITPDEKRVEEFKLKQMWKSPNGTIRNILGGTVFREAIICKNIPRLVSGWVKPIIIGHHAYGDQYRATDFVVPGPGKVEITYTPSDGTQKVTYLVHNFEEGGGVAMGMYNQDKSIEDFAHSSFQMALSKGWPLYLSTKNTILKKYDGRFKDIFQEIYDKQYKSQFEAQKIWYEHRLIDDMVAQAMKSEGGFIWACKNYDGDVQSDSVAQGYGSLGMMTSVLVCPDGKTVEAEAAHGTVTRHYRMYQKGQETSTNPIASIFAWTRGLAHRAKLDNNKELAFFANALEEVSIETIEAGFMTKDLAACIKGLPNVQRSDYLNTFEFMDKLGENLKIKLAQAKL
pIC50: −log10 of the molar value.

Below are worked cases with known answers.
O=C1NC[C@H](c2ccccc2)N1c1ccnc(NC2(c3cn(-c4ccc(Cl)cc4)cn3)CC2)n1 [Compound 13]    6.00 to 7.00
CC(C)[C@H]1CN(C)C(=O)N1c1ccnc(NC2(c3cn(C4CCC(F)(F)CC4)cn3)CC2)n1 [Compound 36]    6.00 to 7.00
CC(C)[C@H]1C(C)N(C)C(=O)N1c1ccnc(N[C@@H](C)c2cn(-c3ccc(Cl)cc3)cn2)n1 (single isomer, unassigned) [Compound 91]    > 7.00
CC(C)[C@H]1CN(C)C(=O)N1c1ccnc(NC(C)(C)c2cn(-c3ccc(Cl)cc3)cn2)n1 [Compound 72]    6.00 to 7.00
CC(C)[C@@H]1N(c2ccnc(N[C@@H](C)c3cn(-c4ccc(C(F)(F)F)cc4)cn3)n2)C(=O)N(C)C12CC2 [Compound 103]    6.00 to 7.00

// query For the molecule CC(C)[C@H]1CN(C)C(=O)N1c1ccnc(NC2(c3cn(-c4ccc(C5CC5)cc4)cn3)CC2)n1 [Compound 39] , what pIC50 is on record?
// result 6.00 to 7.00

// query Also check CC(C)CCn1cnc([C@H](C)Nc2nccc(N3C(=O)N(C)C[C@@H]3C(C)C)n2)c1 [Compound 66]
// result 6.00 to 7.00

// query Also check CC(C)[C@H]1CN(C)C(=O)N1c1ccnc(NC2(c3cn(-c4cc(Cl)cc(C#N)c4)cn3)CC2)n1 [Compound 45]
// result > 7.00

// query Also check Cc1cc(N2C(=O)N(C)C[C@@H]2C2CC2)nc(N[C@@H](C)c2cn(-c3ccc(Cl)cc3)cn2)n1 [Compound 79]
// result 6.00 to 7.00

// query Also check CC(C)[C@H]1CN(C)C(=O)N1c1ccnc(NC2(c3cn(-c4cccc(C5CC5)c4)cn3)CCC2)n1 [Compound 71]
// result 6.00 to 7.00

// query Also check CC(Nc1nccc(N2C(=O)NC[C@@H]2C(C)C)n1)c1ccc(Oc2ccccc2)cc1 (some centres unmarked) [Compound 9]
// result 6.00 to 7.00

###

Target: IDH1 R132H (Homo sapiens (Human), UniProt O75874, R132H)
Test: Effect on the enzyme activity of IDH1 at the molecular level (NADPH consumption, diaphorase/resazurin)
Conditions: α-KG 1 mM, NADPH 4 μM, 60 min room temperature
Method: The enzyme used in the experiment was purchased from cayman Co. The substrates α-KG, NADPH and Diaphorase were purchased from Sigma; Resazurin was purchased from J&K; and the remaining reagents were purchased from Sinopharm Chemical Reagent Co., Ltd. […] Test method: The enzyme activity of IDH1 to convert α-KG to 2HG was measured by the consumption of NADPH. […] IC50 values were calculated using GraphPad Prism software.
Attribute: IC50

// query For the molecule CC(C)[C@H]1CN(C)C(=O)N1c1ccnc(NC2(c3cn(-c4cc(F)cc(C5CC5)c4)cn3)CC2)n1 [Compound 53] , what IC50 is on record?
// result < 100 nM

// query Also check CC(C)[C@H]1C(C)NC(=O)N1c1ccnc(N[C@@H](C)c2cn(-c3ccc(C(F)(F)F)cc3)cn2)n1 (single isomer, unassigned) [Compound 92]
// result < 100 nM

// query Also check [2H]C1([2H])[C@H](C(C)C)N(c2ccnc(N[C@@H](C)c3ccc(-c4cccc(Cl)c4)cn3)n2)C(=O)N1C [Compound 2]
// result 100 to 1000 nM

// query Also check C[C@H](Nc1nccc(N2C(=O)N(C)C[C@@H]2[C@@H](C)O)n1)c1cn(-c2ccc(Cl)cc2)cn1 [Compound 81]
// result 100 to 1000 nM
